system_name: P. falciparum apicoplast DNA polymerase (Pf-apPOL) (Plasmodium falciparum)
Sequence (Q8ILY1 entry or part of it): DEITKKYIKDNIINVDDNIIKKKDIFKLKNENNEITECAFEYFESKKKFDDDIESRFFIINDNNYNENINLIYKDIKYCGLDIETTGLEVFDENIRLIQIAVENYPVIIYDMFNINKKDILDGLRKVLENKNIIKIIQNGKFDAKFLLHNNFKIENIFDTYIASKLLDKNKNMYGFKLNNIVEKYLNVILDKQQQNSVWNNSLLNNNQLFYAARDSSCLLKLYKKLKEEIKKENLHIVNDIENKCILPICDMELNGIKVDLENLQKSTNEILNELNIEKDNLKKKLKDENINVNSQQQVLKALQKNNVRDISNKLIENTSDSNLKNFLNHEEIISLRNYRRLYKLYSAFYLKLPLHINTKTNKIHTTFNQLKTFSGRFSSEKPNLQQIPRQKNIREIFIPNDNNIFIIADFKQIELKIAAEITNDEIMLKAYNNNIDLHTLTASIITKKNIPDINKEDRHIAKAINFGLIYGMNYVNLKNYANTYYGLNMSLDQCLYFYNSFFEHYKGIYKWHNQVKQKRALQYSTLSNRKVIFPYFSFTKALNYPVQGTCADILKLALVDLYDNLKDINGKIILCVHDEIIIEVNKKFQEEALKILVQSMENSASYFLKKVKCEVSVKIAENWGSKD
measurement_description: Fluorescence-based high-throughput DNA polymerase assay (molecular beacon), primary screen and dose-response
Type: biochemical
protocol_conditions: DRC-1; concentration 2.5; 90'
Here, each record is paired with measured % inhibition Apol 90' data.

{"molecule": "Cc1ccnc(NS(=O)(=O)c2ccc(-n3cccc3)cc2)n1 [KU0034899]", "% inhibition Apol 90' (%)": 1.285}
{"molecule": "CCOc1ccc2cc(C3=NN(C(=O)CCC(=O)O)C(c4ccc(C)cc4)C3)c(=O)[nH]c2c1 (stereo not drawn) [KU0056200]", "% inhibition Apol 90' (%)": -4.0405}
{"molecule": "Oc1cccnc1/N=C/c1cc(I)cc(I)c1O [KU0073720]", "% inhibition Apol 90' (%)": 12.6325}
{"molecule": "O=C(O)c1cc([N+](=O)[O-])c(N2CCN(c3cccc(C(F)(F)F)c3)CC2)c([N+](=O)[O-])c1 [KU0076747]", "% inhibition Apol 90' (%)": 2.381}
{"molecule": "O=C(Cc1cccs1)N1CCN(c2nc(CN3CCOCC3)cs2)CC1 [Molecule 35]", "% inhibition Apol 90' (%)": -6}
{"molecule": "Cc1ccc(C2=N/C(=C\\c3ccc(I)o3)C(=O)O2)cc1[N+](=O)[O-] [KU0073890]", "% inhibition Apol 90' (%)": 9.731}
{"molecule": "Cc1cc(C)nc(Nc2nc(CC(=O)Nc3nc(-c4ccco4)cs3)cs2)n1 [Molecule 92]", "% inhibition Apol 90' (%)": -8.504}
{"molecule": "Nc1ncnc(NC2CCCCC2)c1[N+](=O)[O-] [KU0193018]", "% inhibition Apol 90' (%)": 1.71}
{"molecule": "O=[N+]([O-])c1ccc(SCc2ccco2)c2cccnc12 [KU0034480]", "% inhibition Apol 90' (%)": 4.148}
